# credit: patent US7186825B2

Catalogue of molecules with associated pEC50
test system: human lung cancer cells A549; test: MTT assay, survival/growth of cultured human lung cancer cells A549; type: cell-based; conditions: Homo sapiens, 144 h; figure legends; survival of cultured A549 cells, MTT, six days after drug treatment; read-out: ED50 (the source's name)
pEC50: −log10 of the molar value.

Field: example entries. Status: answers known.
[[record]]
molecule = "CCNCCCCNCC#CCNCCCCNCC"
parameter_measured = "pEC50"
reported = 4.91

[[record]]
molecule = "CCNC1CCCC1CNCCCNCC1CCCC1NCC (centres unmarked)"
parameter_measured = "pEC50"
reported = "< 4.51"

[[record]]
molecule = "CCNC/C=C\\CNCCCCNC/C=C\\CNCC"
parameter_measured = "pEC50"
reported = "< 4.51"

[[record]]
molecule = "CCNCCCNCC#CCNCCCNCC"
parameter_measured = "pEC50"
reported = "< 4.51"


Which value of pEC50 has been reported for CCNC/C=C\CNCCCCNCCCCNCCCCNCC in the records?
< 4.51

###

tested on: human prostate cancer cells PC3; assay: MTT assay, survival/growth of cultured human prostate cancer cells PC3; format: cell-based; details: Homo sapiens; Table 4; PC3, growth by MTT assay; read-out: IC50 (μM) in different cell lines
Parameter Measured: IC50 (µM)
Kindly provide the numeric value in µM only, without the unit symbol.

Please give the measured IC50 for this compound: CCNCCCCNCCCCNCCCCNCCCC1=C(C)c2cc3[nH]c(cc4nc(cc5[nH]c(cc1n2)c(CCCNCCCCNCCCCNCCCCNCC)c5C)C(CC)=C4C)c(CC)c3C
1.15

###

System: human prostate cancer cells DUPRO
Assay: MTT assay, survival/growth of cultured human prostate cancer cells DUPRO
Format: cell-based
Settings: figure legends; survival of cultured DUPRO cells, MTT, six days after drug treatment; read-out: ED50 (the source's name)
Description: Human breast cancer cell line MCF7 was grown in Richter's Improved Modified Eagle's Medium supplemented with 10% fetal bovine serum (FBS) and 2.2 g/L sodium bicarbonate. Human brain tumor cell line U251 MG-NCI was grown in Dulbecco's Modified Eagle's Medium supplemented with 10% FBS. […] A conventional MTT assay was used to evaluate percent cell survival. […] A microplate reader (“EMAX”-brand, Molecular Devices, Sunnyvale, Calif.) set at 570 nm was used to determine the optical density of the cultures. […]
Parameter Measured: log10(EC50) (log10 of the value in nM)
Recorded EC50 (log10, nM)

[[record]]
molecule = "CCNC/C=C\\CNC/C=C\\CNCCCCNCC"
reported = 2.64

[[record]]
molecule = "CCNCCCNCCCNCCCNCC [BE-333, N1,N11-diethylnorspermine, reference compound]"
reported = 2.95

[[record]]
molecule = "CCNCCCCNC/C=C\\CNCCCCNCC"
reported = 2.18


Endpoint output: log10(EC50) of CCNCCCCNCC1CCC1CNCCCCNCC (stereo not drawn) [SL-11099] . Value?
1.90

Fill in: log10(EC50) of CCNCCCCNCC1CCC1CNCCCCNCC (stereo not drawn) [SL-11100] is ___
2.48

What value of measured log10(EC50) is listed for CCNC/C=C\CNC/C=C\CNC/C=C\CNCC ?
2.99

###

Reported pIC50 values are given for each entry in this list.
tested on: human lung cancer cells A549; assay: MTT assay, survival/growth of cultured human lung cancer cells A549; type: cell-based; settings: Homo sapiens, read-out: concentration needed for 50% growth inhibition (ID50); Table 3; A549
pIC50: −log10 of the molar value.

[[record]]
compound = "CCNC/C=C\\CNCCCCNC/C=C\\CNCC [SL-11114]"
reported = "< 4.51"

[[record]]
compound = "CCNC/C=C\\CNCCCCNCCCCNCC [SL-11118]"
reported = 6.68

[[record]]
compound = "CCNC/C=C\\CNCCCCNCCCCNCCCCNCC [SL-11121]"
reported = "< 4.51"


Now let's try a different one.
Recorded pIC50 for CCNCCCCNC/C=C\CNC/C=C\CNCCCCNCC [SL-11123] with human lung cancer cells A549, please?
< 4.51

###

Reported pEC50 by item:
Tested on: human prostate cancer cells DUPRO
Test: MTT assay, survival/growth of cultured human prostate cancer cells DUPRO
Format: cell-based
Conditions: Homo sapiens, 144 h; figure legends; survival of cultured DUPRO cells, MTT, six days after drug treatment; read-out: ED50 (the source's name)
Experimental: Human breast cancer cell line MCF7 was grown in Richter's Improved Modified Eagle's Medium supplemented with 10% fetal bovine serum (FBS) and 2.2 g/L sodium bicarbonate. Human brain tumor cell line U251 MG-NCI was grown in Dulbecco's Modified Eagle's Medium supplemented with 10% FBS. […] A conventional MTT assay was used to evaluate percent cell survival. […] A microplate reader (“EMAX”-brand, Molecular Devices, Sunnyvale, Calif.) set at 570 nm was used to determine the optical density of the cultures. […]
Remember the convention: pEC50 equals -log10 of concentration in molar.

[[record]]
compound = "CCNC/C=C\\CNC/C=C\\CNCCCCNCCCCNCC [SL-11127]"
reported = 5.89


Value wanted: pEC50 (human prostate cancer cells DUPRO) of entry CCNC/C=C\CNCCCCNC/C=C\CNCC [SL-11114]
6.19

Please provide the recorded pEC50 for CCNC/C=C\CNCCCCNCCCCNC/C=C\CNCC [SL-11128] , tested on human prostate cancer cells DUPRO.
5.89

What measured pEC50 is associated with CCNCCCCNCCCCNCCCCNCCCCNCC [BE-4444, reference compound] on human prostate cancer cells DUPRO?
6.70

Form entry - test system: human prostate cancer cells DUPRO; read-out: pEC50; compound: CCNC/C=C\CNCCCCNCCCCNCC [SL-11118]
6.60

Observed pEC50 on human prostate cancer cells DUPRO for CCNCCCCNCCCCNCCCCNCCCCNCCO [SL-11141] , please.
6.15

Provide value of pEC50 for this record tested with human prostate cancer cells DUPRO: CCNCCCCNCCCCNCCCCNCCCCNC/C=C\CNCCCCNCCCCNCCCCNCCCCNCC [SL-11150]
6.32

Query pEC50 on human prostate cancer cells DUPRO for CCNCCCCNC/C=C/CNCCCCNCC [SL-11101]
6.07

Test system human prostate cancer cells DUPRO; read-out pEC50; what value for CCNCCCCNC/C=C\CNCCCCNCCCCNCC [SL-11122] ?
6.25

GET /values?readout=pEC50&system=human prostate cancer cells DUPRO&item= CCNC/C=C\CNCCCCNCCCCNCCCCNCC [SL-11121]
6.40

# returns recorded pEC50 (system: human prostate cancer cells DUPRO) for CCNC/C=C\CNC/C=C\CNC/C=C\CNC/C=C\CNCC [SL-11126]
5.96

###

Reported pIC50 values for the following molecules.
tested on: human breast cancer cells MCF7; assay: MTT assay, survival/growth of cultured human breast cancer cells MCF7; assay type: cell-based; conditions: read-out: concentration needed for 50% growth inhibition (ID50); Table 3; MCF7
pIC50: −log10 of the molar value.

[[record]]
molecule = "CCNCCCCNCC1CCC1CNCCCCNCC (centres unmarked) [SL-11100]"
reported = "< 4.51"

[[record]]
molecule = "CCNC/C=C\\CNC/C=C\\CNC/C=C\\CNCC"
reported = "< 4.51"

[[record]]
molecule = "CCNCCCCNCC1CC1CNCCCCNCC (centres unmarked) [SL-11093]"
reported = 6.18

[[record]]
molecule = "CCNCCCCNC/C=C\\CNCCCCNCC"
reported = "< 4.51"

[[record]]
molecule = "CCNCCCCNCC1CC1CNCCCCNCC (centres unmarked) [SL-11098]"
reported = "< 4.51"

[[record]]
molecule = "CCNCCCCNCC1CCC1CNCCCCNCC (centres unmarked) [SL-11099]"
reported = 4.58


Look at this molecule and give its reported pIC50. CCNCCCCNCc1ccccc1CNCCCCNCC
< 4.51

Any idea what its pIC50 is? The molecule is CCNCCCNCc1ccccc1CNCCCNCC
< 4.51

###

system: human colon cancer cells HT29; experiment: MTT assay, survival/growth of cultured human colon cancer cells HT29; type: cell-based; settings: Homo sapiens, read-out: concentration needed for 50% growth inhibition (ID50); Table 3; HT-29
Parameter Measured: pIC50
Schema: pIC50 number; meaning minus log10 of the concentration expressed in molar units.

Below, each entry is followed by its recorded pIC50 result.
[[record]]
compound = "CCNCCCCNC/C=C\\CNCCCCNCCCCNCC"
target_of_assay = "human colon cancer cells HT29"
reported = 6.10

[[record]]
compound = "CCNC/C=C\\CNC/C=C\\CNCCCCNCCCCNCC"
target_of_assay = "human colon cancer cells HT29"
reported = 5.54

[[record]]
compound = "CCNC/C=C\\CNCCCCNCCCCNCC"
target_of_assay = "human colon cancer cells HT29"
reported = 6.01

[[record]]
compound = "CCNC/C=C\\CNCCCCNC/C=C\\CNCC"
target_of_assay = "human colon cancer cells HT29"
reported = 5.44

[[record]]
compound = "CCNCCCCNC/C=C\\CNC/C=C\\CNCCCCNCC"
target_of_assay = "human colon cancer cells HT29"
reported = 4.98


For the compound CCNCCCCNCC#CCNCCCCNCC , what pIC50 is on record?
4.53

Give its pIC50 value. Item: CCNC/C=C\CNCCCCNCCCCNC/C=C\CNCC
5.87

So what's the measured pIC50 for this one? CCNCCCCNCCCCNCCCCNCCCCNCC [BE-4444, reference compound]
6.10

I have this compound here, CCNC/C=C\CNC/C=C\CNC/C=C\CNC/C=C\CNCC , and I need its recorded pIC50.
5.82
